target: Muscarinic acetylcholine receptor M2 (Rattus norvegicus); test: Activation of rat muscarinic M2 receptor expressed in CHO cells co-expressing chimeric Gqi5 protein assessed as potentiation of acetylcholine-induced intracellular Ca2+ mobilization; type: functional, cell-based; details: read-out: EC50
Sequence (P10980 whole entry): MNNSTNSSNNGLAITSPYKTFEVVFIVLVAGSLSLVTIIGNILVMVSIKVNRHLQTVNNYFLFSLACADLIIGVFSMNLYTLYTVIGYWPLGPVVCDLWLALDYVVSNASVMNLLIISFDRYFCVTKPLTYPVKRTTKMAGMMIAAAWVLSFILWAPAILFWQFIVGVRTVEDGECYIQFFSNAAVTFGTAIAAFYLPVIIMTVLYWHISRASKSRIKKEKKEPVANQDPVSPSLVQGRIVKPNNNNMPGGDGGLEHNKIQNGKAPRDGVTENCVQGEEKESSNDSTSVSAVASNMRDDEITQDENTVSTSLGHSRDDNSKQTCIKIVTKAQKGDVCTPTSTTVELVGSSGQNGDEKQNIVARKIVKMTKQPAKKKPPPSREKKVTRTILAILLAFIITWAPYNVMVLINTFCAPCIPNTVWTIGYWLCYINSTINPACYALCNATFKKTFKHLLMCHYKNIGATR
MEASUREMENT_NAME: EC50 (µM)

In [3]: df
Out[3]:
                    structure_smiles_string  units_of_measure  measured
0  O=C1C(=O)N(Cc2ccc(C(F)(F)F)cc2)c2c(Cl)cccc21                µM      2.84

* * *

target: Muscarinic acetylcholine receptor M3 (Homo sapiens); assay: Activation of human muscarinic M3 receptor expressed in CHO cells coexpressing Gq protein assessed as potentiation of acetylcholine-induced intracellular Ca2+ mobilization
Sequence (P20309 whole entry): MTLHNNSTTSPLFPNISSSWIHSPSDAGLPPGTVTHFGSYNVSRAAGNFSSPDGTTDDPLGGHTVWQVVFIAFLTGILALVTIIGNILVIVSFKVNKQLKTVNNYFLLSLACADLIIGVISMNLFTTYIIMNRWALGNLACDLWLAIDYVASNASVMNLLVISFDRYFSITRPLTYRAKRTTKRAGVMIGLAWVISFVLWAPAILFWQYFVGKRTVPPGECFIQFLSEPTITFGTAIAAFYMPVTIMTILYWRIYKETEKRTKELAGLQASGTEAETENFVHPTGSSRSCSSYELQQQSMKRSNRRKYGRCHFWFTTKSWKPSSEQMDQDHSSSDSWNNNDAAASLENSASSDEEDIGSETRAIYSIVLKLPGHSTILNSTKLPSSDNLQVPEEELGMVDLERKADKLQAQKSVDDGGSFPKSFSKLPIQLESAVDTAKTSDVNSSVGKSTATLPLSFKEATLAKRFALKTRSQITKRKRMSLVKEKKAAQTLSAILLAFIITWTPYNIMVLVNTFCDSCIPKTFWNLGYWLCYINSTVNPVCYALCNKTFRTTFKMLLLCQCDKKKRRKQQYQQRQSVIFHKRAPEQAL
MEASUREMENT_NAME: EC50 (µM)

                    structure_smiles_string  prefix_operator  measured
0        O=C1C(=O)N(Cc2ccc(Br)cc2)c2ccccc21                =      6.38
1  O=C1C(=O)N(Cc2ccc(C(F)(F)F)cc2)c2c(Cl)cccc21                =      2.22
2  COc1ccc(CN2C(=O)C(=O)c3cc(OC(F)(F)F)ccc32)cc1                >        30

* * *

Target: Muscarinic acetylcholine receptor M1 (Rattus norvegicus)
Sequence (P08482 whole entry): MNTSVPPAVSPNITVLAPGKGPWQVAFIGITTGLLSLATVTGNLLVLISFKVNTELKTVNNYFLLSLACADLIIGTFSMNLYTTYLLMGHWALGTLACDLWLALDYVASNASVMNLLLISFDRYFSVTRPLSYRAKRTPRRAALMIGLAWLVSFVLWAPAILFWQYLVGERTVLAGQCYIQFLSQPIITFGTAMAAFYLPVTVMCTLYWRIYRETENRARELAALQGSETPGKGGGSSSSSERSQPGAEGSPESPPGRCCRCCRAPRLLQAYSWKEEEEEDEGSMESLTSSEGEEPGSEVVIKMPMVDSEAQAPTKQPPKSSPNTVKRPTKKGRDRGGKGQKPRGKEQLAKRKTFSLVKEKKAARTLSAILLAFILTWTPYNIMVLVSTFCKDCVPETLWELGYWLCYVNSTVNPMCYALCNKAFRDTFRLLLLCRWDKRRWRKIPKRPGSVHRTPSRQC
Assay: Activation of rat muscarinic M1 receptor expressed in CHO cells co-expressing Gq protein assessed as potentiation of acetylcholine-induced intracellular Ca2+ mobilization
pEC50: −log10 of the molar value.
MEASUREMENT_NAME: pEC50

In [3]: df
Out[3]:
                    structure_smiles_string  prefix_operator  measured
0     O=C1C(=O)N(Cc2ccc(Br)cc2)c2c(F)cccc21                =      5.40
1  COc1ccc(CN2C(=O)C(=O)c3cc(OC(F)(F)F)ccc32)cc1                <      4.52
2  O=C1C(=O)N(Cc2ccccc2Cl)c2ccc(OC(F)(F)F)cc21                <      4.52
3  COc1cccc(CN2C(=O)C(=O)c3c(Cl)ccc(Cl)c32)c1                <      4.52
4    COc1ccc(CN2C(=O)C(=O)c3cccc(Cl)c32)cc1                =      5.27
5  COc1cccc(CN2C(=O)C(=O)c3cc(OC(F)(F)F)ccc32)c1                <      4.52
6  O=C1C(=O)N(Cc2ccc(C(F)(F)F)cc2)c2c(Cl)cccc21                =      5.49
7  Cc1ccccc1CN1C(=O)C(=O)c2cc(OC(F)(F)F)ccc21                <      4.52
8  O=C1C(=O)N(Cc2ccc(OC(F)(F)F)cc2)c2ccc(OC(F)(F)F)cc21                <      4.52
9  O=C1C(=O)N(Cc2ccccc2C(F)(F)F)c2ccc(F)cc21                =      5.21
